For each entry below, report its EC50 value.
Biological target: Rat VPAC2 Receptor (Rattus norvegicus)
Construct: expressed in transfected cells; host or cells: CHO-PO (transient, Lipofectamine)
Sequence (P35000 23-437): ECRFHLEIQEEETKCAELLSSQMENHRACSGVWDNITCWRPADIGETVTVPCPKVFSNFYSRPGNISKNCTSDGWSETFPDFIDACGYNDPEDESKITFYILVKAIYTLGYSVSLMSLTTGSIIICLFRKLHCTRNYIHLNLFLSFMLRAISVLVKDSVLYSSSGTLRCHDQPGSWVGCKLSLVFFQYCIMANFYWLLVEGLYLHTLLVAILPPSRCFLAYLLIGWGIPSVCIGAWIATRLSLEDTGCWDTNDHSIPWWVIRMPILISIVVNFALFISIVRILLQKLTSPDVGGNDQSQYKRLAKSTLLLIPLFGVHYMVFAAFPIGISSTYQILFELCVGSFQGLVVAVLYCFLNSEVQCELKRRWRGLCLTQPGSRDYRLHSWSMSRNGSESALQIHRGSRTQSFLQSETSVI
Assay: DiscoveRx cAMP potency, CHO-PO cells transiently transfected with rat VPAC2 receptor
Type: cell-based
Conditions: cAMP generation
Number only, in nM; omit the unit.

Input: Need EC50, item C6-HSDAVFTEQY(OMe)TOrnLRAibQVAAAibOrnYAibQSIOrnOrnGGPSSGAPPPC(PEG40K)-NH2 (HSDAVFTEQYTXLRXQVAAXXYXQSIXXGGPSSGAPPPC; C6 acyl, PEG40K on Cys, C-terminal amide; Synthetic sequence PEGylated VPAC2 receptor agonist) [Agonist P507]
Output: 94.9

Input: Need EC50, item C6-HSDAVFTEQY(OMe)TOrnLRAibQC(PEG40K)AAbuAibOrnY(OMe)LQSIOrnOrnGGPSSGAPPPS-NH2 (HSDAVFTEQYTXLRXQCAXXXYLQSIXXGGPSSGAPPPS; C6 acyl, non-natural residues, PEG40K, C-terminal amide; Synthetic sequence PEGylated VPAC2 receptor agonist) [Agonist P586]
Output: 187

Input: Need EC50, item C6-HSDAVFTEQY(OMe)TOrnLRAibQLAAbUAibOrnY(OMe)LQAibIOrnC(PEG40K)OrnGGPSSGAPPPS-NH2 (HSDAVFTEQYTXLRXQLAXXXYLQXIXCXGGPSSGAPPPS; C6 acyl, non-natural residues, PEG40K, C-terminal amide; Synthetic sequence PEGylated VPAC2 receptor agonist) [Agonist P576]
Output: 67.4
